Target: T1, human GIP receptor (human, UniProt P48546 22-466)
T1 sequence (looked up): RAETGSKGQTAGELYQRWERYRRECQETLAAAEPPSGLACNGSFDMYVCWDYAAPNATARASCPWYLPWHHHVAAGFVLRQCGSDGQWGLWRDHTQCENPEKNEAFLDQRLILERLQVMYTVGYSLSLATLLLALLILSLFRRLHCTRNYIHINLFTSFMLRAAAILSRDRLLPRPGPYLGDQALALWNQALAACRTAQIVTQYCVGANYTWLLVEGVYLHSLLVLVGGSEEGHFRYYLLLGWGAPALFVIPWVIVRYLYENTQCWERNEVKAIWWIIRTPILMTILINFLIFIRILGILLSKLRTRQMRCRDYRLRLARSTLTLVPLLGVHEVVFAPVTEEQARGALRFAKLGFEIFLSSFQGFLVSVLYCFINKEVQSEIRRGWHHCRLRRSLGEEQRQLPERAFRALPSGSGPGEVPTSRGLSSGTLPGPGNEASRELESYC
Experiment: cell-based or functional assay
Positions of bridges follow the written chain, without caps; N, C: chain ends. Non-standard residues stand in square brackets, D forms with d. No end group written: not given here. *: point of attachment. Acetyl(2-(4-imidazolyl)) = O=C(Cc1c[nH]cn1)*; Aib = CC(C)(N)C(=O)O
Below, each entry is listed alongside its reported In vitro activity relative to native peptide (%), vs. GIP (cAMP EC50).
# output: bare number, implied unit %

Study these solved cases before continuing.
BINDER	UNIT DESCRIPTOR	RECORDED VALUE
{Acetyl(2-(4-imidazolyl))}-[Aib]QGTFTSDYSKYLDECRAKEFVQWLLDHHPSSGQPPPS (bridge 15-19) [trigonal agonist of SEQ ID NO: 73]	%	3
Y[Aib]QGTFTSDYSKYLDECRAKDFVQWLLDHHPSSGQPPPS (bridge 16-20) [trigonal agonist of SEQ ID NO: 66]	%	17.2
H[Aib]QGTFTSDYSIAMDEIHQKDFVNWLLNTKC (bridge 16-20) [trigonal agonist of SEQ ID NO: 35]	%	1.3
H[Aib]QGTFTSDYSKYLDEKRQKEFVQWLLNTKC (bridge 16-20) [trigonal agonist of SEQ ID NO: 58]	%	0.2
H[Aib]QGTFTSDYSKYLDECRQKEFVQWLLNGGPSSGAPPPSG (bridge 16-20) [trigonal agonist of SEQ ID NO: 37]	%	2.2

Query: I would be grateful if you could share the reported In vitro activity relative to native peptide (%), vs. GIP (cAMP EC50) for Y[Aib]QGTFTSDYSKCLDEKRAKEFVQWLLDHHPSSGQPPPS (bridge 16-20) [trigonal agonist of SEQ ID NO: 22] .
Reply: 59.7

Query: Next binder: Y[Aib]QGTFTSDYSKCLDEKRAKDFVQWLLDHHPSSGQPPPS (bridge 16-20) [trigonal agonist of SEQ ID NO: 70]
Reply: 64.4

Query: Next binder: {Acetyl(2-(4-imidazolyl))}-[Aib]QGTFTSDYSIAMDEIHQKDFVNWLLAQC (bridge 15-19) [trigonal agonist of SEQ ID NO: 85]
Reply: 0.3
